- system-under-test: UniProt:P56696
- Sequence (P56696 whole entry, looked up): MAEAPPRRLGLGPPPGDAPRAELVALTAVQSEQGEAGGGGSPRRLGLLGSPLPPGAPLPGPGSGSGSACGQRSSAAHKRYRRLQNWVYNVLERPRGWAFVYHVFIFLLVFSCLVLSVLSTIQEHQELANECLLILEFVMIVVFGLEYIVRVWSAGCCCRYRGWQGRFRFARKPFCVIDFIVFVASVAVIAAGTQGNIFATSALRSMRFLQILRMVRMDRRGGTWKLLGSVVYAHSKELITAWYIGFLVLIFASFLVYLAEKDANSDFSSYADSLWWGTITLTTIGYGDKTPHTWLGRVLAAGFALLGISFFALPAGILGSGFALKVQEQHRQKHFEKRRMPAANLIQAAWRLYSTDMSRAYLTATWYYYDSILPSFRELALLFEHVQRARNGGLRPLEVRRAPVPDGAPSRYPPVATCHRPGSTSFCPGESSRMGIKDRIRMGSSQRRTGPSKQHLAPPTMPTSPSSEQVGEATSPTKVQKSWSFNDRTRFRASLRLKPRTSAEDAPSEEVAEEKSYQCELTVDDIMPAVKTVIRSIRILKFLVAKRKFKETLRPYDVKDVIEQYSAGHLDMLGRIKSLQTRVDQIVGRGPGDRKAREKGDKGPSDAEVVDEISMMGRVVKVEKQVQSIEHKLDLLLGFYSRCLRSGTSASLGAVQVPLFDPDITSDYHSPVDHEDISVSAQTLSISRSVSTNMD
- method-notes: human KCNQ4 channel current potentiation, dose response, selectivity assay for KCNQ2 activator project, automated patch clamp, CHO cells (AID 493043)
measurement-name: EC50

{"columns": ["molecule", "measurement-name", "readout-value"],
 "data": [
  ["Cc1cc(C)c(NC(=O)C2CC3CCC2C3)c(C)c1 (stereo unspecified)", "EC50", "513 nM"]
]}
